Data origin: patent US9040747B2

Measured Proportion of reduced coenzyme Q10 accompanies every entry in the list below.
experiment: Reduction of oxidized coenzyme Q10 by amino acid in ethanol, HPLC proportion of reduced coenzyme Q10; conditions: Example 1: 6 equivalents amino acid, 78° C., 16 hours, nitrogen atmosphere
Provide only the numeric value, understood in % by weight.

Consider the following illustrative entries.
N[C@@H](CO)C(=O)O [Serine] | 5
N=C(N)NCCC[C@H](N)C(=O)O [Arginine] | 35
O=C(O)[C@@H]1CCCN1 [Proline] | 6

Okay, next one:
Exam item: Fill blank: measured Proportion of reduced coenzyme Q10 of the compound N[C@@H](Cc1c[nH]c2ccccc12)C(=O)O [Tryptophan] is ____.
Marked response: 21
